Recorded values, source PubChem BioAssay.

Biological target: Nuclear receptor coactivator 3 (Homo sapiens) (UniProt Q9Y6Q9)
Sequence (Q9Y6Q9 whole entry, looked up): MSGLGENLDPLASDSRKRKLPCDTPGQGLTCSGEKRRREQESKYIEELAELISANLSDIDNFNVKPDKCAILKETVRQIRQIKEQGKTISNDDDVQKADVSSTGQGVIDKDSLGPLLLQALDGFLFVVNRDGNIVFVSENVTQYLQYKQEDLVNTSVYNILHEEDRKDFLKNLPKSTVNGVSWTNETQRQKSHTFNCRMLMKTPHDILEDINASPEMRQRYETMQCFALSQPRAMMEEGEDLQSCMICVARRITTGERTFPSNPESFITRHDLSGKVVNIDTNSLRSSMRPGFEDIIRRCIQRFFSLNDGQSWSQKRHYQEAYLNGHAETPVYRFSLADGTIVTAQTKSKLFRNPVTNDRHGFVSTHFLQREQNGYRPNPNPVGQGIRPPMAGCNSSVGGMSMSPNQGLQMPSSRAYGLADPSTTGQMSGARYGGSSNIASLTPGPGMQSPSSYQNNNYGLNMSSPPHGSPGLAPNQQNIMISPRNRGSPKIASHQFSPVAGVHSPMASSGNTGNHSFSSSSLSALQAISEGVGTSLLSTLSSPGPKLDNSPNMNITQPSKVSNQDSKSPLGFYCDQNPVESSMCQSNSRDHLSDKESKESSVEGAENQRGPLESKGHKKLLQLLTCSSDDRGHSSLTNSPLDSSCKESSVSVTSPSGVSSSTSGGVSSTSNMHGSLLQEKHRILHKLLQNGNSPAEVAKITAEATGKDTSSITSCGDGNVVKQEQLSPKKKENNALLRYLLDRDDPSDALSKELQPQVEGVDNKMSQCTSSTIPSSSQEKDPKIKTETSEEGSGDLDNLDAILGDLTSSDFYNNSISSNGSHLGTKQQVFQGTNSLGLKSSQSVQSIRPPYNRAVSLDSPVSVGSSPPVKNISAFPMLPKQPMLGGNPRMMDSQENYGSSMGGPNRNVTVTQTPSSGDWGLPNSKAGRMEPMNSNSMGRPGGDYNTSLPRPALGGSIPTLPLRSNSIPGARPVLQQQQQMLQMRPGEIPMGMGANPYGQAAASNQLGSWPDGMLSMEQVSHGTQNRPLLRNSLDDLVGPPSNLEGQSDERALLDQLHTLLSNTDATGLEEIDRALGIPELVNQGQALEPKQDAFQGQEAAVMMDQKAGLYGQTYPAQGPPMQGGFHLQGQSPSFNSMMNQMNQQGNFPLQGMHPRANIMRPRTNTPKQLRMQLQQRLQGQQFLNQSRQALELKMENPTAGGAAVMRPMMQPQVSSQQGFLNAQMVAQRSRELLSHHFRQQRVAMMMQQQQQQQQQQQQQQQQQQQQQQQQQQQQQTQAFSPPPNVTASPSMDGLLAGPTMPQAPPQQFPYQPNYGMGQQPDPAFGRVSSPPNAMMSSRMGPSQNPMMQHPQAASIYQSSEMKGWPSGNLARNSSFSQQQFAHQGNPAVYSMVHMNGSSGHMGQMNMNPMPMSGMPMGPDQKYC
Assay: SRC3 coactivator transcriptional activity inhibitors, confirmation, cell-based, luminescence, quadruplicate (AID 588792);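 note: 0% = DMSO treated cells and 100% = gossypol at 36 µM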
Details: HEK293 GAL4-SRC3 luciferase reporter, at 3.6 µM, active compounds read high
Each item that follows carries a reported inhibition.
readoutKind: inhibition (%)

INSERT INTO results (molecule, reading) VALUES
  ('c1ccc(-c2ccc(-c3nc(-c4ccccn4)no3)cc2)cc1', 43.5),
  ('Nc1nccc(-c2ccc(-n3cnc4ccccc43)cc2)n1', 56.7),
  ('COc1ccc(C)cc1N=Nc1ccc(O)c2ncccc12', 9.14),
  ('CCOc1ccc(C(=O)C(CCC(CN(C)C)C(=O)c2ccc(OCC)cc2)CN(C)C)cc1 (stereo not given)', -1.23),
  ('O=[N+]([O-])c1ccccc1NC1CCN(Cc2ccccc2)CC1', -4.81),
  ('O=C(Nc1ccc2c(c1)CCC2)C1CCN(c2c3c(nc4ncnn24)CCC3)CC1', 13.5),
  ('COc1ccc(Cl)cc1C(=O)Nn1c(-c2cccs2)nc2ccccc2c1=O', 25.5),
  ('Cc1nc2ccc(NC(=O)c3ccc(Cl)c(S(=O)(=O)N(C)c4ccccc4)c3)cc2s1', 19.2),
  ('O=C(/C=C/c1ccc(Cl)cc1)NC(=S)Nc1ccc(NC(=O)c2ccco2)cc1', 29.7),
  ('CCOc1ccc(-c2cc(C)n3nc(C(N)=O)cc3n2)cc1', 32.9),
  ('Cc1ccccc1C(=O)N1CCN(c2ccc(NC(=O)CSc3ccc(Cl)cc3)cc2)CC1', 46.2),
  ('COc1ccc(/C(C)=N/NC(=O)c2cccc(S(=O)(=O)N3CCCC3)c2)c(O)c1', 67.9),
  ('COC1=CC(=O)c2nc(Cl)ccc2C1=O', 67.8),
  ('Cc1cc(C)n(CCC(=O)N/N=C/c2ccccc2O)n1', 18),
  ('O=C(NCc1ccccc1)c1csc(-c2cccnc2)n1', 54.8),
  ('Cn1c2c(c(=O)n(C)c1=O)C(C(F)(F)F)(C(F)(F)F)N=C(C1CCCCC1)N2', 11.5),
  ('CC1(C)CC(N2CCCC2)=CC(=[N+]2CCCCCC2)C1', 23),
  ('COc1ccc(-c2noc(CCC(=O)NCCCN3CCC(Cc4ccccc4)CC3)n2)cc1', -0.27),
  ('C=CCSc1nc2ccccc2n1C(=O)/C=C/c1cc(OC)c(OC)c(OC)c1', -6.27),
  ('O=C(N/N=C/c1c(O)ccc2ccccc12)c1cccc(C(F)(F)F)c1', 82.3),
  ('CCC1(O)C(=O)OCc2c1cc1n(c2=O)Cc2cc3c(N)cccc3nc2-1 (stereo not given)', 89.6),
  ('COc1cccc(C(=O)CC(=O)C(=O)Nc2cccc([N+](=O)[O-])c2C)c1', -3.08),
  ('Cc1ccc2nc(-c3ccncc3)c(NC3CCCC3)n2c1', 38.8),
  ('COc1cncc(-c2cnc3sc(NCCc4ccccn4)nn23)c1', 56.8),
  ('Cc1nnc(-c2ccccc2)c(=O)n1/N=C/c1c(O)ccc2ccccc12', 40.6),
  ('CCCC(=O)NC(c1ccccc1OC)c1ccc2cccnc2c1O (stereo not given)', 61.1),
  ('CC(=O)CSc1ccc(-c2nc3cc(C)c(C)cc3[nH]2)cn1', 22.4),
  ('Oc1ccccc1N=Nc1nc(-c2ccccc2)c(-c2ccccc2)[nH]1', 81.4),
  ('CN(C)S(=O)(=O)c1ccc(-c2csc(N/N=C/c3ccco3)n2)cc1', -2.21),
  ('Cc1csc(SCC(=O)c2cc(C)n(Cc3cccs3)c2C)n1', 9.06),
  ('CCOC(=O)C(=Cc1ccccc1OC)C(=O)OCC', 27.3),
  ('COc1ccc2nc(C)cc(Nc3ccc(N4CCN(C)CC4)cc3)c2c1', 71.8),
  ('CCOc1cc(N2CCOCC2)c(OCC)cc1NC(=O)c1cc(-c2ccco2)nc2ccccc12', 17.5),
  ('COc1ccc(C)cc1NC(=O)c1nnn(Cc2cccc(F)c2)c1N', 22.3),
  ('CCc1ccccc1Nc1nn2c(=O)c3ccc(C(=O)NCc4ccccn4)cc3nc2s1', 33.3),
  ('O=C(Oc1ccc(F)cc1C(=O)/C=C/c1cccs1)c1cccc([N+](=O)[O-])c1', -13.7),
  ('Cc1ccc(NC(=O)c2cc(Cl)ccc2[N+](=O)[O-])cc1C', 27.3),
  ('Clc1ccc(C2=Nn3c(nnc3-c3n[nH]c4c3CCC4)SC2)cc1', 28.4),
  ('COc1ccc(NC(=O)N(C)C[C@H]2Oc3c(NC(=O)Nc4ccc(C(F)(F)F)cc4)cccc3C(=O)N([C@H](C)CO)C[C@@H]2C)cc1', 10.2),
  ('c1ccc(NNC2=NCCCCC2)cc1', 1.28);

---

Target: Nuclear receptor subfamily 5 group A member 2 (Homo sapiens) (UniProt O00482)
Sequence (O00482 whole entry, looked up): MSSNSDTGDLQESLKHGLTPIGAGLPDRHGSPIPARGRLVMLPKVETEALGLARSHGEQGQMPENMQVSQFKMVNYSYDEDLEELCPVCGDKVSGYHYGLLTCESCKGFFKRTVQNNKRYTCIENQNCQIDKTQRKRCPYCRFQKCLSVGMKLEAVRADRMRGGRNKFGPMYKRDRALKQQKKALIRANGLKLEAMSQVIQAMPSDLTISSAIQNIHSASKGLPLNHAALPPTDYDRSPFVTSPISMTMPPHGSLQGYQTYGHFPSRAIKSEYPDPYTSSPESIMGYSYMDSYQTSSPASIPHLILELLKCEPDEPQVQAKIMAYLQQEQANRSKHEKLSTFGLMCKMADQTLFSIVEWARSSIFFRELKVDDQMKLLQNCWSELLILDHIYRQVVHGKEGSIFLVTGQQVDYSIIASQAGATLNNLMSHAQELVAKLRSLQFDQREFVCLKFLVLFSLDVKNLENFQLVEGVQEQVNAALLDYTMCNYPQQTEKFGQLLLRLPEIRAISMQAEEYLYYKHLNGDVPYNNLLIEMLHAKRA
Assay: LRH-1 (NR5A2) inverse agonists, retest, confirmation, cell-based, luminescence (AID 651613);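 note: HEK293T cells co-transfected with LRH-1 and StAR promoter luciferase reporter; 0% = vehicle wells and 100% = parental cells lacking receptor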
Details: cell-based LRH-1 luciferase reporter, inverse agonism; at 3.6 µM
Activity calls are given as the source filed them. No stated cut-off is given here; in the data, active means inhibition above about 42%; inactive means the rest.
Possible outcomes: active, inactive

INSERT INTO results (smilesnotation, category) VALUES
  ('N#Cc1c(N)c(C#N)c(-c2ccc(O)cc2)c2c1CCCC2', 'active'),
  ('CC[n+]1c(/C=C/N(C)c2ccccc2)oc2ccccc21', 'active'),
  ('CC(=NNC(=S)N1CC2CCC(CC2)C1)c1ccccn1', 'active'),
  ('COc1ccc(-c2cn(-c3ccccc3)c3[n+]2CCS3)cc1', 'active'),
  ('Clc1cccc(CNc2ccn3nc(-c4ccc(OCc5ccccc5)cc4)cc3n2)c1', 'inactive');

---

Assay: StAR promoter reporter inhibitors, counter-screen for LRH-1 inverse agonist project, cell-based, luminescence, high throughput (AID 651611)
Details: StAR promoter luciferase reporter counterscreen, at 3.6 µM, active compounds read high
Each item that follows carries a reported inhibition.
readoutKind: inhibition (%)

INSERT INTO measurements (smilesnotation, reading) VALUES
  ('COc1cc(C(=O)Nc2ccccc2N2CCN(S(C)(=O)=O)CC2)cc(OC)c1OC', 9.79),
  ('COCCNc1ncnc2c1ncn2[C@H]1CN(CCc2ccccc2)C[C@@H](CO)O1', 9.96),
  ('COc1ccc(N2CCN(C(=O)CSc3nnc(-c4cc5ccccc5cc4O)n3C)CC2)cc1', 19.8);

---

Target: Nuclear receptor coactivator 3 (Homo sapiens) (UniProt Q9Y6Q9)
Test: SRC3 coactivator transcriptional activity inhibitors, confirmation, cell-based, luminescence, quadruplicate (AID 588792);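 note: 0% = DMSO treated cells and 100% = gossypol at 36 µM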
Details: HEK293 GAL4-SRC3 luciferase reporter, at 3.6 µM, active compounds read high
The source made the active and inactive calls.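 Rule for the calls: active = mean inhibition over 43.08%, the solvent-only control mean plus 3 SD; inactive = the rest.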 Bridge positions count the residues as written; N and C are the ends. Square brackets hold non-standard residues; d marks the D form. Peptide text beside a SMILES is read from it.
Each item that follows carries a reported inhibition.
readoutKind: inhibition

INSERT INTO measurements (compound, reading) VALUES
  ('CCC(C)c1ccc(NC(=S)N2CCN(C(=O)C3CCCO3)CC2)cc1 (stereo not drawn)', '8.54% (inactive)'),
  ('CC(NNC(=S)N1CCN(c2ccccn2)CC1)c1nccc2ccccc12 (stereo not drawn)', '61.5% (active)'),
  ('COc1ccc(-c2c[n+]3c(n2-c2ccccc2)SCC3)cc1', '17.9% (inactive)'),
  ('CC(=O)NC(c1ccc(Cl)cc1)c1ccc2cccnc2c1O (stereo not drawn)', '83% (active)'),
  ('COc1cccc(/C=N/Nc2ccc([N+](=O)[O-])cn2)c1O', '48% (active)'),
  ('Cc1ccc(OCC(=O)c2cc(C)n(Cc3cccs3)c2C)c([N+](=O)[O-])n1', '21% (inactive)'),
  ('CC[C@H](C)[C@@H]1NC(=O)[C@@H](CC(C)C)NC(=O)[C@H](C(C)C)NC(=O)[C@H]2CSSC[C@H](NC1=O)C(=O)N2 (cyclo(C[dC]V[dL]I); disulfide 1-2)', '99.9% (active)'),
  ('COc1cccc2c1C(=O)c1c(O)c3c(c(O)c1C2=O)C[C@@](O)(C(=O)CO)C[C@@H]3O[C@H]1C[C@H](N)[C@H](O)[C@H](C)O1', '49.7% (active)'),
  ('CCOc1cccc(/C=N/NC(=O)c2cc(-c3cccn3C)n[nH]2)c1O', '26% (inactive)'),
  ('Cc1cccc(NC(=O)c2cnn(C)c2)c1C', '-2.28% (inactive)'),
  ('CC(=C/c1ccccc1)/C=N/n1c(-c2ccncc2)n[nH]c1=S', '71.2% (active)'),
  ('COc1cc(C(F)(F)F)c(C(=O)N(C)Cc2cc(Cl)cc(Cl)c2)cn1', '-10.3% (inactive)'),
  ('Cc1[nH]c2ccccc2c(=O)c1C(=O)/C=C/c1ccccc1', '76.1% (active)'),
  ('CC(C)CC(=NNC(=O)c1ccncc1)c1cc(Cl)ccc1O', '80.1% (active)'),
  ('c1cc2[nH]snc2c2nc(C3CC3)nc12', '63.9% (active)'),
  ('CCN(CC)c1ccc2nc3ccc(N)cc3[n+](-c3ccccc3)c2c1', '81.2% (active)'),
  ('Cc1cccc(C)c1NS(=O)(=O)c1ccc(-c2cnc(C3CC3)o2)cc1', '43.2% (active)'),
  ('CC(C)C[C@H](NC(=O)c1[nH]cnc1C(=O)N[C@@H](Cc1ccccc1)C(=O)OC(C)(C)C)C(=O)OC(C)(C)C', '13.6% (inactive)'),
  ('Cc1nc2c(O)c3c(c(O)c2nc1C)C1C=CC3CC1', '96.9% (active)'),
  ('COc1cc(C(=O)N/N=C/c2coc3ccc(Cl)cc3c2=O)ccc1O', '24.2% (inactive)'),
  ('COc1ccc(NC(=O)c2cc3c(-c4ccc(OC)c(OC)c4)nn(C)c3s2)cc1OC', '10.7% (inactive)'),
  ('COc1ccc(C(=O)/C=C/c2cc(OC)c(O)c(OC)c2)c(F)c1', '26.6% (inactive)'),
  ('O=C(/C=C/c1ccccc1)CC(O)(c1ccccc1)C(F)(F)F (stereo not drawn)', '38.5% (inactive)'),
  ('N#CC(C#N)c1ccnc2ccccc12', '66.9% (active)'),
  ('Fc1ccccc1-c1csc(=Nc2cccnc2)n1CCCn1ccnc1', '37.4% (inactive)'),
  ('COc1ccc2c(c1OC)C(=O)N1c3ccccc3C(=O)N(c3ccccc3)C21 (stereo not drawn)', '17.1% (inactive)'),
  ('CCOc1cc(/C=C2\CN(CC)C/C(=C\c3ccc(O)c(OCC)c3)C2=O)ccc1O', '65.4% (active)'),
  ('O=C(OC(c1ccccc1)c1nccc2ccccc12)c1ccccc1 (stereo not drawn)', '57.4% (active)'),
  ('CCOC(=O)CN(C(=O)COc1nc(C)cc(C)c1C#N)c1ccc(Cl)cc1', '4.25% (inactive)'),
  ('COc1ccc(-[n+]2c(C)cc(/C=C3\Sc4ccccc4N3C)cc2C)cc1', '74.4% (active)'),
  ('C=C1C(=O)C23C(O)C1CCC2C12CCCC(C)(COC(C)=O)C1C(O)C3(O)OC2 (stereo not drawn)', '66.6% (active)'),
  ('O=C(Nc1ccc(S(=O)(=O)Nc2ccc(F)cc2)cc1)c1ccc(CN2CCOCC2)cc1', '7.38% (inactive)'),
  ('O=C(CN1C(=O)C(=O)N(C2CCCC2)C1=O)Nc1ccccc1OC(F)F', '10.1% (inactive)');
